Target: bovine adrenal estrogen sulfotransferase (EC 2.8.2.4) (Bos taurus, UniProt P19217)
Sequence (P19217 1-295): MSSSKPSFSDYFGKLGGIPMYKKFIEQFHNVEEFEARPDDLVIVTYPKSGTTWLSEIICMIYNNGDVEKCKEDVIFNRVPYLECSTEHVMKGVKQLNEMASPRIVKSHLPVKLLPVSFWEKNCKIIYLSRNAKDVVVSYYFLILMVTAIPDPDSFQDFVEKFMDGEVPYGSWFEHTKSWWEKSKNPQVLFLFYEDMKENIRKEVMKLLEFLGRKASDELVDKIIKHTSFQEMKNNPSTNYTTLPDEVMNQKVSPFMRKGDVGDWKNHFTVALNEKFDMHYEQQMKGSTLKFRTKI
Experiment: Relative sulfurylation rate (RSR): enzymic transfer of sulfate from analogs IV and V to estrone at saturating steroid
Details: sulfurylation of estrone relative to IVa (RSR=1)
Recorded Metric: RSR (in words)

Give RSR (in words) (bovine adrenal estrogen sulfotransferase (EC 2.8.2.4) (Bos taurus, UniProt P19217)) of the following compound: O=c1[nH]cnc2c1ncn2[C@@H]1O[C@H](COP(=O)(O)OS(=O)(=O)O)[C@@H](OP(=O)(O)O)[C@H]1O [3'PIno5'PS, inosine 3'-phosphate 5'-phosphosulfate]
low

What do you have for O=P(O)(O)O[C@H]1[C@@H](O)[C@H](n2cnc3cncnc32)O[C@@H]1COP(=O)(O)OS(=O)(=O)O ?
low

// provenance: patent US4266048A
